Below: a set of entries, each annotated with reported z-score.
- Test: MELAS cybrid and Rieske KO viability enhancers – cell-based, MELAS cybrids, Rieske KO mouse fibroblasts, CellTiter-Glo, primary screen (AID 1508586);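 note: test concentration not given here; z relative to plate mean and SD of compound and empty wells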
- Particulars: MELAS cybrid survival, low glucose, CellTiter-Glo 48 h; stronger effect = higher value
Answer with the value's number alone.

- Compound: "NC(=S)NN=Cc1ncccc1N"
  z-score: 1.28

State the recorded z-score for this entry: OC(CNCC(O)C1CCc2cc(F)ccc2O1)C1CCc2cc(F)ccc2O1 (stereo not given) 0.602

---

Below: a set of entries, each annotated with reported cell count.
- Test: viability loss with induced miR-34 in A549 – imaging, A549 dox-inducible miR-34, nuclei and caspase counts, primary screen (AID 1347080); note: test concentration not given here
- Particulars: A549 miR-34 inducible, Hoechst nuclei count, 48 h; measured here: total cells with miR-34 induction; stronger effect = lower value
Answer with the value's number alone.

- Molecule: "Nc1nc(Cl)nc2c1ncn2C1OC(CO)C(O)C1F (configuration not stated)"
  cell count: 1700
- Molecule: "C=C1C(=CC=C2CCC[C@]3(C)C(C(C)CCCC(C)C)CC[C@@H]23)CC(O)CC1O (some centres not stated)"
  cell count: 6380
- Molecule: "CCOC(=O)O[C@]1(C(=O)COC(=O)CC)CC[C@H]2[C@@H]3CCC4=CC(=O)C=C[C@]4(C)[C@H]3[C@@H](O)C[C@@]21C"
  cell count: 5980
- Molecule: "COc1cc(N)c(Cl)cc1C(=O)OCCN1CCCCC1"
  cell count: 10600
- Molecule: "Cc1cc2c(cc1Cl)N(C(=O)Nc1ccc(Oc3cccnc3C)nc1)CC2"
  cell count: 4820

State the recorded cell count for this entry: Cc1cc(NC(=O)Cn2ncc3cc(-c4ccc(F)c(F)c4)ccc32)n(C)n1 4810

State the recorded cell count for this entry: C=C[C@]1(C)CC(OC(=O)CSC(C)(C)CNC(=O)C(N)C(C)C)[C@@]2(C)C(C)CC[C@]3(CCC(=O)[C@H]32)C(C)C1O (some centres not stated) 6360

State the recorded cell count for this entry: O=C(Nc1cc(C(F)(F)F)ccc1N1CCCCC1)c1ccncc1 7440

State the recorded cell count for this entry: Nc1ncnc2c1ncn2[C@@H]1O[C@H](COP(=O)(O)OP(=O)(O)OP(=O)(O)OP(=O)(O)OC[C@@H]2O[C@H](n3cnc4c(N)ncnc43)C(O)[C@@H]2O)[C@H](O)C1O (some centres not stated) 8750

State the recorded cell count for this entry: Nc1ncnc2c1ncn2C1OC(CO)CC1O (configuration not stated) 8910
